Biological target: Delta-type opioid receptor (Rattus norvegicus, UniProt P33533)
Sequence (P33533 whole entry): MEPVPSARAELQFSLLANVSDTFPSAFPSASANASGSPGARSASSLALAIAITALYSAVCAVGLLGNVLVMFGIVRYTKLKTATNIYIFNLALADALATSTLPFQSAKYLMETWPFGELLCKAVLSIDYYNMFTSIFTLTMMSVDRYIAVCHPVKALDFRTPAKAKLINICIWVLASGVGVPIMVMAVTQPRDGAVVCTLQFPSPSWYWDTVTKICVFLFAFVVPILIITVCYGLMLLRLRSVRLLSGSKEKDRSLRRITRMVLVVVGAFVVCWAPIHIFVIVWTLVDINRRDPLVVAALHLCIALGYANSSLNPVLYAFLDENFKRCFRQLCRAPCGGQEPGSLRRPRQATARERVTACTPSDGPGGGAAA
Test: Displacement of [3H]deltorphin 2 from delta-opioid receptor in Sprague-Dawley rat brain P2 synaptosome membrane
Numbered stars: 1 amine (or outer) side, 2 acyl side, 3 side chain; on linkers, the order of the positions; unused ones are H or OH. Square brackets hold non-standard residues; d marks the D form. Peptide text beside a SMILES is read from it. ξ: configuration not given here. Dmt = Cc1cc(O)cc(C)c1C[C@H](N)C(=O)O; Ethylenediamine = C(CN[*:2])N[*:1]; ξTic = O=C(O)C1Cc2ccccc2CN1
measured quantity: Ki (nM)
Give your result in nM as a bare value.

molecule	Ki [nM]
Cc1cc(O)cc(C)c1C[C@H](N)C(=O)N1Cc2ccccc2CC1C(=O)NCCN (some centres not stated) (H-[Dmt]-[ξTic]-Ethylenediamine)	1.81

Attention now turns to another entry.
Qu. Tell me the measured Ki of Cc1cc(O)cc(C)c1C[C@H](N)C(=O)N1Cc2ccccc2C[C@H]1C(=O)NCCNC(=O)[C@H](Cc1ccccc1)NC(=O)[C@H](Cc1ccccc1)NC(=O)[C@@H]1CCCN1C(=O)[C@@H](N)Cc1ccc(O)cc1 , please.
Ans. 1.45

The values you see were collected from ChEMBL document CHEMBL1137499.
